target: dopamine transporter (Mus musculus, UniProt Q61327)
Sequence (Q61327 whole entry): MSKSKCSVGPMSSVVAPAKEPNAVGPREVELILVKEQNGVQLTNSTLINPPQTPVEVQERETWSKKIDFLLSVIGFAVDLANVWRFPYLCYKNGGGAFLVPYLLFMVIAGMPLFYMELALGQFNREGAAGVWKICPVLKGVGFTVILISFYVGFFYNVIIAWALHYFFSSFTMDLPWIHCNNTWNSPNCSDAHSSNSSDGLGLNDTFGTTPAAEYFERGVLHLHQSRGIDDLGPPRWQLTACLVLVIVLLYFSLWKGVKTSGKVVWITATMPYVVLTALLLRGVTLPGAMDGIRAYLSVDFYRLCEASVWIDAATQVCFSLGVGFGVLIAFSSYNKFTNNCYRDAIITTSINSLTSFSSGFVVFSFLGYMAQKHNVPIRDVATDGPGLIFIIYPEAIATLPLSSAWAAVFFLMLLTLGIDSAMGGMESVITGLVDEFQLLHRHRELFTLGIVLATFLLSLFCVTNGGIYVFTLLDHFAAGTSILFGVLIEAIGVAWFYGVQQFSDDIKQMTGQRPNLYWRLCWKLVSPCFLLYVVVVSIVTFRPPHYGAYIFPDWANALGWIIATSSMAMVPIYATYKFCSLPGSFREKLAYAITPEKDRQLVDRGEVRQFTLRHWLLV
assayName: In vivo inhibition of ^3 H-WIN 35428 binding (striatum)
Set-up: from tissue; host or cells: striatum of living female NMRI mice; species or system mice (female NMRI)
statedConditions: ip, mice, inhibition of specific ^3 H-WIN 35428 binding in striatum
readoutName: ED50 (mg/kg)
Your answer is read as mg/kg, so omit the unit and give the number.

// fetch ED50 given entry `CN1[C@H]2CC[C@@H]1[C@H](C=NO)[C@@H](c1ccc(Cl)c(Cl)c1)C2`
3.8

Supply reported ED50 belonging to this compound: `CON=C[C@@H]1[C@@H](c2ccc(Cl)c(Cl)c2)C[C@@H]2CC[C@H]1N2C`
0.9

Give me measured ED50, please, for this compound: `CN1[C@H]2CC[C@@H]1[C@@H](C=NO)[C@@H](c1ccc(Cl)c(Cl)c1)C2`
0.56

Assign ED50 to the following record: `CN1[C@H]2CC[C@@H]1[C@H](C=NO)[C@@H](c1ccc(Cl)cc1)C2`
1.05

###

Please provide measured pIC50 for the entries that follow.
target: ^3 H-5-HT (serotonin) uptake (serotonin transporter) (Rattus norvegicus)
Construct: Cerebral cortices from male Wistar rats (150-200 g) are homogenized
Sequence (P31652 whole entry): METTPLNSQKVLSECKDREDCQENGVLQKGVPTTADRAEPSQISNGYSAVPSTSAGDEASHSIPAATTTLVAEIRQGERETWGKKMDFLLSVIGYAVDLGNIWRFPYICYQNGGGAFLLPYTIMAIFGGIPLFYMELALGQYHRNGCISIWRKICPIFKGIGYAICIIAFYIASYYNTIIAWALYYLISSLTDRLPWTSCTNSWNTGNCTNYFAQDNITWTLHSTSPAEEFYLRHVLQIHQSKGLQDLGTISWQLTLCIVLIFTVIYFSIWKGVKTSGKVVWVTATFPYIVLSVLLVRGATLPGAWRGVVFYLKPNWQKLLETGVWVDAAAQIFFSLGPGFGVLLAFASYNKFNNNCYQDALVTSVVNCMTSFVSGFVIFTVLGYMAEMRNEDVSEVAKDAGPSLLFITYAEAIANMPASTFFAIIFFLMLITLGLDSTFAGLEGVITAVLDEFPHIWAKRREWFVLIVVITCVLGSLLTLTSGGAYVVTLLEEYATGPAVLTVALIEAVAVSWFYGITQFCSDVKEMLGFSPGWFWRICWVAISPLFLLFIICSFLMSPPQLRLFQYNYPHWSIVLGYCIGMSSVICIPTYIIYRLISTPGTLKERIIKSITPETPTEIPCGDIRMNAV
assayName: In vitro inhibition of ^3 H-5-hydroxytryptamine (^3 H-5-HT, serotonin) uptake in cortical synaptosomes
statedConditions: ^3 H-5-HT 1 nM, 30 min at 37° C.
Counter-ions that a name gives are not always drawn.
Please express pIC50 as -log10 of the molar concentration.

Hello, please tell me recorded pIC50 for this one: `CON=C[C@@H]1[C@@H](c2ccc(Cl)c(Cl)c2)C[C@@H]2CC[C@H]1N2C`
7.89

Kindly indicate its recorded pIC50. Item: CON=C[C@@H]1[C@@H](c2ccc(Cl)c(Cl)c2)C[C@@H]2CC[C@H]1N2 [hydrochloride]
8.77

###

target: dopamine transporter (Rattus norvegicus)
Construct: Corpus striatum from male Wistar rats (150-200 g) is homogenized; from tissue; host or cells: corpus striatum of male Wistar rats
Sequence (P23977 whole entry): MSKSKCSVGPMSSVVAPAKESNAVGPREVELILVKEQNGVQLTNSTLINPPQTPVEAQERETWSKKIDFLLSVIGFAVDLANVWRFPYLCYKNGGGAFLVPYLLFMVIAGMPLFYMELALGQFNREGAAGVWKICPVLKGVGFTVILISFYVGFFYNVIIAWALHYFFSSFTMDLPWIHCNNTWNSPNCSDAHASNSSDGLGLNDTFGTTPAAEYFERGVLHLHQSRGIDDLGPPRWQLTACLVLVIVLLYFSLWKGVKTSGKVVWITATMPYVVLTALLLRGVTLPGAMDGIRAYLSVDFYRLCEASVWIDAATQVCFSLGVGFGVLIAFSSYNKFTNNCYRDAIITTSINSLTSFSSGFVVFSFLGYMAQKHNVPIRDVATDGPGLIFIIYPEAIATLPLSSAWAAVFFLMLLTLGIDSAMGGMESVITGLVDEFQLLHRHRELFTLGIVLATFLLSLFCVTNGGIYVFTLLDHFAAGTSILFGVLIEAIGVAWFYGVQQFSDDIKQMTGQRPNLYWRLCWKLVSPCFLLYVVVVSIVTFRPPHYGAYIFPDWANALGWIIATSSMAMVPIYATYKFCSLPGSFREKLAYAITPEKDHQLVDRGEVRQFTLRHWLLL
assayName: In vitro inhibition of ^3 H-WIN 35428 binding (corpus striatum)
Parameters: species or system rat (male Wistar)
statedConditions: rat corpus striatum, ^3 H-WIN 35428 1 nM, 60 min at 2° C.; read-out: in vitro IC50
Counter-ions that a name gives are not always drawn.
readoutName: pIC50
Formally, pIC50 is defined as -log10 of the concentration c, with c in mol/L.

Provide pIC50 value for the following molecule: `CON=C[C@H]1[C@@H](c2ccc(Cl)c(Cl)c2)C[C@@H]2CC[C@H]1N2C`
8.74

Input CON=C[C@@H]1[C@@H](c2ccc(Cl)c(Cl)c2)C[C@@H]2CC[C@H]1N2 [hydrochloride] , output reported pIC50.
8.22

In one line, give reported pIC50 of the entry CON=C[C@@H]1[C@@H](c2ccc(C)cc2)C[C@@H]2CC[C@H]1N2C [hydrochloride] .
7.38

Given CON=C[C@@H]1[C@@H](c2ccc(Cl)cc2)C[C@@H]2CC[C@H]1N2C [hydrochloride] , respond with its pIC50.
7.32

Report pIC50, nothing else, for this molecule: `CON=C[C@@H]1[C@@H](c2ccc(Cl)c(Cl)c2)C[C@@H]2CC[C@H]1N2C`
8.52

Write down pIC50 measured for item C#CCON=C[C@@H]1[C@@H](c2ccc(Cl)c(Cl)c2)C[C@@H]2CC[C@H]1N2C [hydrochloride]
7.72

Answer with the recorded pIC50 for the molecule listed here: CCOC(=O)CON=C[C@@H]1[C@@H](c2ccc(Cl)c(Cl)c2)C[C@@H]2CC[C@H]1N2C [hydrochloride]
7.62

Supply reported pIC50 belonging to this molecule: C=CCON=C[C@@H]1[C@@H](c2ccc(Cl)c(Cl)c2)C[C@@H]2CC[C@H]1N2C [hydrochloride]
7.66

Identify pIC50 associated with the molecule CC(C)CON=C[C@@H]1[C@@H](c2ccc(Cl)c(Cl)c2)C[C@@H]2CC[C@H]1N2C [hydrochloride]
7.25

Look up and report measured pIC50 for this entry: CN1[C@H]2CC[C@@H]1[C@H](C=NOCC1CC1)[C@@H](c1ccc(Cl)c(Cl)c1)C2 [hydrochloride]
7.70

Respond only with pIC50 recorded for CN1[C@H]2CC[C@@H]1[C@H](C=NOCc1ccccc1)[C@@H](c1ccc(Cl)c(Cl)c1)C2 [HCl]
7.12

###

target: UniProt Q61327
assayName: In vivo inhibition of ^3 H-WIN 35428 binding (striatum)
Parameters: from tissue; host or cells: striatum of living female NMRI mice; species or system mice (female NMRI)
statedConditions: ip, mice, inhibition of specific ^3 H-WIN 35428 binding in striatum
Counter-ions that a name gives are not always drawn.
Give ED50 for every item shown.
Only the number, expressed in mg/kg, is required.

Please report the measured ED50 for CON=C[C@@H]1[C@@H](c2ccc(Cl)cc2)C[C@@H]2CC[C@H]1N2C [hydrochloride] tested on UniProt Q61327.
1

Write down the reported ED50 (system: UniProt Q61327) of CON=C[C@@H]1[C@@H](c2ccc(Cl)c(Cl)c2)C[C@@H]2CC[C@H]1N2 [hydrochloride]
1.4

Answer briefly: ED50 recorded on UniProt Q61327 for `CON=C[C@H]1[C@@H](c2ccc(Cl)c(Cl)c2)C[C@@H]2CC[C@H]1N2C`
0.37
